biological target: T1, human CD3 expressed on cells (Jurkat cells; human T-cells of PBMC) (human, UniProt P09693 23-182; P20963 22-164); test: FACS titration on Jurkat cells (CD3+ human T-cell line)
T1 construct: whole, on cells; Native CD3 on the cell surface; also called hPBMC
T1 sequence (chain, as listed by the source, chain 1 of 4): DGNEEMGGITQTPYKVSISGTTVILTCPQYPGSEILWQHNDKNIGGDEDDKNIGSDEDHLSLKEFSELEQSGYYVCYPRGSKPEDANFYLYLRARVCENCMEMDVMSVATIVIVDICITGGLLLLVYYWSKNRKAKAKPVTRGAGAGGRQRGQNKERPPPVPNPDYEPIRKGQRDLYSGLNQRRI
T1 sequence (chain, as listed by the source, chain 2 of 4): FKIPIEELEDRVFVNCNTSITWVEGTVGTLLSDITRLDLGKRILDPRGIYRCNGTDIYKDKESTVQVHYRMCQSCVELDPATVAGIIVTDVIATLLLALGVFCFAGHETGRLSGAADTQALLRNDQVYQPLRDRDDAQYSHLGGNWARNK
T1 sequence (P09693 23-182, chain 3 of 4): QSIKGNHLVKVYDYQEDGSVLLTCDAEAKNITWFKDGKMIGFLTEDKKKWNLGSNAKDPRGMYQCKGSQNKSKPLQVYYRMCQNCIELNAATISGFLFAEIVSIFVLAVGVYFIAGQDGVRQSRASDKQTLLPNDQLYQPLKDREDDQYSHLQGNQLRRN
T1 sequence (P20963 22-164, chain 4 of 4): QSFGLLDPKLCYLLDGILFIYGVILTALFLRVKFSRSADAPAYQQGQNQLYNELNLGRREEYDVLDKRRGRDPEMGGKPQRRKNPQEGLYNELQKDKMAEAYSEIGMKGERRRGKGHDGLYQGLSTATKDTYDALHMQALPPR
propertyMeasured: pEC50
Entry type: numeric. Quantity: pEC50, the -log10 of concentration in molar units.

These recorded examples may help you get a feel for the data.
{"binder": "H1H5795B (antibody, human IgG1, V domains shown, H1H: human IgG1 Fc) VH: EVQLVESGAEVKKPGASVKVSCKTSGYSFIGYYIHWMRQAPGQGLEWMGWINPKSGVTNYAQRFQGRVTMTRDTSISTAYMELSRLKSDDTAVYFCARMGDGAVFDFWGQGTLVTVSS VL: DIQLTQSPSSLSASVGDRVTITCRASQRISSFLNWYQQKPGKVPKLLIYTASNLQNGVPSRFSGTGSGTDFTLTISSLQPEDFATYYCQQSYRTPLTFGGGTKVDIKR", "pEC50": 8.69}
{"binder": "H1H5778P (antibody, human IgG1, V domains shown, H1H: human IgG1 Fc) VH: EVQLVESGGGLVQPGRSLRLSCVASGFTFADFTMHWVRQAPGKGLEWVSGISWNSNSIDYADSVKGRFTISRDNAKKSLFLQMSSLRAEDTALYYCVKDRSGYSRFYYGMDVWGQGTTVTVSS VL: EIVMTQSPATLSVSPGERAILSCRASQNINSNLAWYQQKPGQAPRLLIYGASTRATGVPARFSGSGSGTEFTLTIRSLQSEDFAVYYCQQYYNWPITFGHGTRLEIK", "pEC50": 9.16}
{"binder": "H1H5792B (antibody, human IgG1, V domains shown, H1H: human IgG1 Fc) VH: QVQLVESGGGVVQPGRSLRLSCAASGFTFSSYGMHWVRQAPGKGLEWVSTISFDGSNKYYADSVKGRFTISRDNSKNTLYLQMNSLRPEDTAVYYCAKGGGTSGSYFYYGMDVWGQGTTVTVSS VL: AIQMTQSPSSLSASVGDRVTITCRASQRISSFLNWYQQKPGKAPKLLIYTASNLQNGVPSRFSGSGSGTDFTLTISSLQPEDFATYYCQQSYRTPLTFGGGTKLEIKR", "pEC50": 8.23}
{"binder": "H1H5788P (antibody, V domains shown, H1H: human IgG1 Fc) VH: EVQLVESGGGLVQPGRSLRLSCAASGFTFDDYTMHWVRQAPGKGLEWVSGISWNSGSIGYADSVKGRFTISRDNAKNSLYLQMNSLRAEDTALFYCAKDQSGYGHYYYGMDVWGQGTTVTVSS VL: EIVMTQSPATLSVSPGERATLSCRASQSVSSNLAWYQQKPGQAPRLLIYGASTRATDIPARFSGSGSGTEFTLTISSLQSEDFAVYHCQQYNNWPLTFGGGTKVEIK", "pEC50": 8.45}

Pending binder:
Task: Report pEC50 for H1H5755B (antibody, human IgG1, V domains shown, H1H: human IgG1 Fc) VH: EVQLVESGGGVVQPGRSLRLSCAASGFTFSNYGMHWVRQAPGKGLEWVTVILHDGSYKYYADSVKGRFTISRDNSKNTLHLQMNSLRTEDTAVYYCAKGPMFRGVPYNHYYGMDVWGQGTTVTVSS VL: DIQMTQSPSSLSASVGDRVTITCRASQGIRNDLGWYQQKPGKAPKRLIYAASSLQSGVSSRFSGSGSGTEFTLTISSLQPEDFATYYCLQHNSYPYTFGQGTKVEIKR please.
Result: 8.91
